Collected RLU values appear next to each entry.
# target_or_test_system: T1, apical domain of cynomolgus CD71 (cynomolgus, UniProt A0A2K5X958 189-383)
# T1 construct: domain: apical domain; also called Cyno apical domain
# T1 sequence (A0A2K5X958 entry or part of it): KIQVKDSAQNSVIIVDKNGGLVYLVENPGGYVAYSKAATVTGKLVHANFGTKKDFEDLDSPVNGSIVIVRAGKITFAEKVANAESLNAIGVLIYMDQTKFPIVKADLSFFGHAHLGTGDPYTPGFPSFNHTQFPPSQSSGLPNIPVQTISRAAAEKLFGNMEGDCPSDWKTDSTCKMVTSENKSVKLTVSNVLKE
# experimental_details: primary ELISA; further: test concentration or dose not given here
All answers are understood in RLU, so give the number only.

Known results for binders:
binder	endpoint_result
CD71-binding FN3 domain of SEQ ID NO: 184 (designed binder) MSLPAPKNLVVSRVTEDSARPSWTAPDAAFDSFEIAYFERTWFGEAIVLTVPGSERSYDLTGLKPGTEYWVQIGGVKGGDWSKPLSAIFTT	5.08e+06
CD71-binding FN3 domain of SEQ ID NO: 145 (designed binder) MSLPAPKNLVVSRVTEDSARLSWTAPDAAFDSFFIGYLEPQPPGEAIALLVPGSERSYDLTGLKPGTEYNVTIQGVKGGFPSHPLSAKFTT	6.36e+06
CD71-binding FN3 domain of SEQ ID NO: 147 (designed binder) MSLPAPKNLVVSRVTEDSARLSWTAPDAAFDSFFIGYLEPQPPGEAIELFVPGSERSYDLTGLKPGTEYNVTIQGVKGGFPSGPLIASFTT	6.67e+06
CD71-binding FN3 domain of SEQ ID NO: 124 (designed binder) MSLPAPKNLVVSRVIEDSARLSWTAPDAAFDSFEIGYFENLYLGEAIVLTVPGSERSYDLTGLKPGTEYWVQIGGVKGGNWSAPLSAIFTT	4.89e+06
CD71-binding FN3 domain of SEQ ID NO: 155 (designed binder) MSLPAPENLVVSRVTEDSARLSWTAPDAAFDSFEIGYFENLYLGEAIVLTVPGSERSYDLTGLKPGTEYWVQIGGVKGGVWSRPLSAIFTT	5.19e+06
CD71-binding FN3 domain of SEQ ID NO: 207 (designed binder) MSLPAPKNLVVSRVTEDSARLSWTAPDAAFDSFEIGYWENAYKGEAIVLTVPGSERSYDLTGLKPGTEYVVFIGGVKGGVWSVPLSAISTT	4.94e+06

Provide RLU value for the following binder: CD71-binding FN3 domain of SEQ ID NO: 190 (designed binder) MSLPAPKNLVISRVTEDSARLSWTAPDAAFDSFEIGYFENLYLGEAIVLTVPGSERSYDLTGLKPGTEYWVQIGGVKGGNWSAPLSAISTT
5.2e+06

Provide RLU value for the following binder: CD71-binding FN3 domain of SEQ ID NO: 142 (designed binder) MSLPAPKNLVVSRVTEDSARLSWTASDAAFDSFHIWYFEKANEGEAIPLVVPGSERSYDLTGLKPGTEYDVDIGGVKGGAWSIPLGARFTT
5.27e+06

Provide RLU value for the following binder: CD71-binding FN3 domain of SEQ ID NO: 217 (designed binder) MSLPAPKNLVVSRVTEDSARLSWTAPDAAFDSFEIAYFEQTYTGEAIVLTVPGSERSYDLTGLKPGTEYWVAIGGVKGGLWSLPLSAIFTT
3.98e+06
